- System: Alternaria alternata
- Test Protocol: Antifungal activity against Alternaria alternata by MTT assay
- Format: functional
Would you mind telling me the reported MIC of each entry?

Quick check: MIC of Oc1ccc([C@@H]2c3cc(O)ccc3[C@@H]3c4c(O)cc(O)cc4[C@@H]2c2c(O)cc(O)c4c2[C@@H]3[C@@H](c2ccc(O)cc2)[C@@H]4c2cc(O)cc(O)c2)cc1 [VATICANOL G] ?
> 50 µg/mL

Try the compound `Oc1ccc([C@H]2Oc3cc(O)cc4c3[C@@H]2c2cc(O)cc3c2[C@@H](c2cc(O)cc5c2[C@@H]4[C@H](c2ccc(O)cc2)O5)[C@H](c2ccc(O)cc2)O3)cc1`
> 50 µg/mL

Quick one: Oc1ccc([C@@H]2c3c(O)cc(O)cc3[C@@H]3c4c(cc(O)c5c4[C@H]2[C@H](c2ccc(O)cc2)[C@H]5c2cc(O)cc(O)c2)O[C@H]3c2ccc(O)cc2)cc1 [VATICANOL A]
> 50 µg/mL

Reference source for all entries: ChEMBL document CHEMBL1158139
